- Tested on: RPMI-8226
- Test: NCI tumour cell line growth inhibition, 48 h
Active and inactive are the calls of the source. Rule as the data show it: active = GI50 up to about 1.1 µM and inactive = higher.
Tick one outcome: 1 = active, -1 = inactive

Example cases with answers are listed next.
Compound	Measured On	Group
C/C1=C/C(=O)O[C@@H]2C[C@@H](CC[C@H](C)/C=C\C=C\CC1)O[C@@](O)([C@@H]1CSC(=O)N1)C2	RPMI-8226	-1
CC(=O)c1ccc(NC(=O)C(=O)C(C#N)CC(C)(C)C=O)cc1 (stereo unspecified)	RPMI-8226	-1
O=C(O)CCN(CCC(=O)O)c1ccc(/C=C2\SC(=S)NC2=O)cc1	RPMI-8226	-1
CCOc1cccc2nc3cccc(C(=O)NCCN(C)C)c3nc12	RPMI-8226	1
CCN(CC)C(=O)c1cc([N+](=O)[O-])c(=O)n2c1[nH]c1ccccc12	RPMI-8226	-1
CC1OC(OC2C(O[C@@H]3C[C@@H]4CC[C@@H]5[C@H](CC[C@]6(C)[C@@H]7[C@H](C[C@@H]56)O[C@]5(CC[C@@H](C)CO5)[C@H]7C)[C@@]4(C)C[C@H]3O)OC(CO)C(OC3OC(CO)C(O)C(O)C3O)C2O)C(O)C(O)C1O (stereo partly specified)	RPMI-8226	-1
Cc1cc(NS(=O)(=O)c2ccc(NC(=O)c3cccc4cc5ccccc5nc34)cc2)no1	RPMI-8226	-1
O=C(O)c1cscc1Cc1cccs1	RPMI-8226	-1
OCC1OC(c2nc(C3=NCCCN3)cs2)C(O)C1O (stereo unspecified)	RPMI-8226	-1
COC(=O)[C@H]1C=NN[C@@H]1C(=O)N1[C@H]2CC3CC[C@@]2(CS1(=O)=O)C3(C)C	RPMI-8226	-1

Which outcome was assigned to COc1ccc2nc3cccc([N+](=O)[O-])c3c(NCCO)c2c1 in this test?
1

---

- Test system: SF-295
- Test: NCI tumour cell line growth inhibition, 48 h
Activity calls are given as the source filed them. No stated cut-off is given here; in the data, active = GI50 up to about 1.1 µM and inactive = higher.
Readout Name: GI50

Reference set, count: 4
Compound	Recorded Value
CC1(C(=O)O)CCOc2ccccc21 (stereo not given)	> 100 µM (inactive)
O=c1oc2ccc(Cl)cc2cc1-c1cn2cc(Cl)ccc2n1	10.1 µM (inactive)
Cc1cc(C)n(C2OC(CO)C(O)C(O)C2O)c(=S)c1C#N (stereo not given)	> 100 µM (inactive)
Cn1ncc(NCCn2cnc3c2c(=O)n(C)c(=O)n3C)c(Cl)c1=O	> 100 µM (inactive)

Then there is this compound:
GI50 for Cc1ccc(/N=N/c2c(O)c(C(=O)O)cc3ccccc23)c(S(=O)(=O)O)c1 ?
> 100 µM (inactive)

---

Each record here notes measured GI50.
- Test system: Hs-578T
- Test: NCI tumour cell line growth inhibition, 48 h
Active and inactive are the calls of the source. Cut-off read from the data, not from the text of the source: active = GI50 up to about 1.1 µM and inactive = higher.

Reference set, count: 3
Compound	GI50
COc1c(C2(c3ccc(F)cc3)SCCCS2)c(=O)c1=O	> 100 µM (inactive)
O=C1NN=C(c2c[nH]c3ccccc23)CC1NCc1ccccc1 (centres undefined)	> 100 µM (inactive)
N=c1c2c3n(c4c(=O)n(-c5ccccc5)c(=S)n(c(=O)n1-c1ccccc1)c24)CCCCC3	> 100 µM (inactive)

GI50 for C/C1=C/C(=O)O[C@@H]2C[C@@H](CC[C@H](C)/C=C\C=C\CC1)O[C@@](O)([C@@H]1CSC(=O)N1)C2 ?
0.114 µM (active)
